- EXPERIMENTAL_SYSTEM: Peroxisome proliferator-activated receptor alpha (Rattus norvegicus)
- Sequence (P37230 whole entry): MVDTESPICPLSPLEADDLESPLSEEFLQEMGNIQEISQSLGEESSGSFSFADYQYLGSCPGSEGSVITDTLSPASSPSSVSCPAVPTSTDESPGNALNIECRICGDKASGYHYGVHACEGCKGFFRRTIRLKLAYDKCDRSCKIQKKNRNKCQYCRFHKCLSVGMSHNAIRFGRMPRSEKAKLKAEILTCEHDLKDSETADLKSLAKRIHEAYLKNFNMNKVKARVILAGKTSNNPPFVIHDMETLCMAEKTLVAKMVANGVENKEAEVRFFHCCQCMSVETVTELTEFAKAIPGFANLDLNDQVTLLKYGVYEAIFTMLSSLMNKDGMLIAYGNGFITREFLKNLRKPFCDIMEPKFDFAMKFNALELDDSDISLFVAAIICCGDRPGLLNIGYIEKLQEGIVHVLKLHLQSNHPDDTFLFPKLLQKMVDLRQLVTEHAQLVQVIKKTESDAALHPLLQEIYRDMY
- MEASUREMENT_PROTOCOL: Agonist activity at rat PPARalpha in rat H4IIE cells assessed as gene induction
Parameter: pEC50. Scope: all listed entries.
When answering, recall that pEC50 equals minus log10 of the concentration in mol/L, and write that number alone.

# example entries with known answers
CCCCCN(C(=O)Nc1ccc(OC(F)(F)F)cc1)C1Cc2ccc(SC(C)(C)C(=O)O)cc2C1 (centres undefined) :: 6.98
CCCCCCCN(C(=O)Nc1ccccc1C)C1Cc2ccc(SC(C)(C)C(=O)O)cc2C1 (centres undefined) :: 5.12
CCCCCCCN(C(=O)Nc1ccc(C(F)(F)F)cc1)C1Cc2ccc(SC(C)(C)C(=O)O)cc2C1 (centres undefined) :: 5.90
CCCCCCCN(C(=O)Nc1ccc(OC(F)(F)F)cc1)C1Cc2ccc(SC(C)(C)C(=O)O)cc2C1 (centres undefined) :: 6.53
CCN(C(=O)Nc1ccc(SC(F)(F)F)cc1)C1Cc2ccc(SC(C)(C)C(=O)O)cc2C1 (centres undefined) :: 7.64
CCCCCCN(C(=O)Nc1ccc(SC(F)(F)F)cc1)C1Cc2ccc(SC(C)(C)C(=O)O)cc2C1 (centres undefined) :: 6.60

Next, consider the following compound.
Challenge: What does the record list as pEC50 for CCCCCCCCN(C(=O)Nc1ccc(OC(F)(F)F)cc1)C1Cc2ccc(SC(C)(C)C(=O)O)cc2C1 (centres undefined) ?
Response given: 5.99

====

- EXPERIMENTAL_SYSTEM: Peroxisome proliferator-activated receptor alpha (Rattus norvegicus)
- MEASUREMENT_PROTOCOL: Agonist activity at rat PPARalpha in rat H4IIE cells assessed as gene induction
MEASURED_ATTRIBUTE: EC50 (nM)
Kindly provide the numeric value in nM only, without the unit symbol.

CCN(C(=O)Nc1ccc(C(C)C)cc1)C1Cc2ccc(SC(C)(C)C(=O)O)cc2C1 (centres undefined) :: 32
CCCCCCCN(C(=O)Nc1ccccc1SC(F)(F)F)C1Cc2ccc(SC(C)(C)C(=O)O)cc2C1 (centres undefined) :: 1960
CCN(C(=O)Nc1ccc(OC(F)(F)F)cc1)[C@H]1Cc2ccc(SC(C)(C)C(=O)O)cc2C1 :: 165
CCCCCCN(C(=O)Nc1ccc(N(C)C)cc1)C1Cc2ccc(SC(C)(C)C(=O)O)cc2C1 (centres undefined) :: 219
CCCCN(C(=O)Nc1ccc(OC(F)(F)F)cc1)C1Cc2ccc(SC(C)(C)C(=O)O)cc2C1 (centres undefined) :: 195
CC(C)(Sc1ccc2c(c1)C[C@H](NC(=O)Nc1ccc(OC(F)(F)F)cc1)C2)C(=O)O :: 146

Next, consider the following compound.
Challenge: What does the record list as EC50 for CCCCCCCN(C(=O)Nc1ccc(OC)cc1)C1Cc2ccc(SC(C)(C)C(=O)O)cc2C1 (centres undefined) ?
Response given: 910

====

- MEASUREMENT_PROTOCOL: Half life at terminal phase in Sprague-Dawley rat at 30 mg/kg, po
- Format: ADME, organism-based
- Set-up: dose 30 mg/kg, route oral
- SETTINGS: in vivo, read-out: beta t1/2 (converted)
MEASURED_ATTRIBUTE: half-life (h)
Kindly provide the numeric value in h only, without the unit symbol.

CCN(C(=O)Nc1ccc(N(C)C)cc1)C1Cc2ccc(SC(C)(C)C(=O)O)cc2C1 (configuration not stated) :: 4.46
CCCCCN(C(=O)Nc1ccc(SC(F)(F)F)cc1)C1Cc2ccc(SC(C)(C)C(=O)O)cc2C1 (configuration not stated) :: 4.05
CCN(C(=O)Nc1ccc(C(C)C)cc1)C1Cc2ccc(SC(C)(C)C(=O)O)cc2C1 (configuration not stated) :: 2.92
CCCCCN(C(=O)Nc1ccc(N(C)C)cc1)C1Cc2ccc(SC(C)(C)C(=O)O)cc2C1 (configuration not stated) :: 2.6
CCN(C(=O)Nc1ccc(SC(F)(F)F)cc1)C1Cc2ccc(SC(C)(C)C(=O)O)cc2C1 (configuration not stated) :: 3.84

Challenge: What does the record list as half-life for CCN(C(=O)Nc1ccc(OC(F)(F)F)cc1)C1Cc2ccc(SC(C)(C)C(=O)O)cc2C1 (configuration not stated) ?
Response given: 4

Challenge: What does the record list as half-life for CCCCCN(C(=O)Nc1ccc(OC(F)(F)F)cc1)C1Cc2ccc(SC(C)(C)C(=O)O)cc2C1 (configuration not stated) ?
Response given: 7.19
